- Test system: ovarian cancer A2780
- Test summary: Cell biological activity detection (CyQuant, 72 hours), A2780
- Format: cell-based, human
- Applied conditions: A2780 cells, incubation for 72 hours
pIC50: −log10 of the molar value.
Below, each entry is listed with its recorded pIC50.

In the examples that follow, each entry is paired with its recorded pIC50.
> print(dat)
                                   compound  value.observed
1  FC(F)(F)c1cnc(NC2CCC3CNCC32)nc1-c1c[nH]c2nc(N3CCOCC3)ccc12 (single isomer, unassigned) [Compound 57]    5.30 to 6.70
2  FC(F)(F)c1cnc(NC2CCC3CNCC32)nc1-c1c[nH]c2nc(N3CCOCC3)ccc12 (single isomer, unassigned) [Compound 56]    4.30 to 5.30
3  CP(C)(=O)c1cccc2c(-c3nc(NCC(O)C(F)F)ncc3C(F)(F)F)c[nH]c12 (single isomer, unassigned) [Compound 124]    6.70 to 7.70

Now for a further compound.
For the compound CP(C)(=O)c1cccc2c(-c3nc(NCC4(O)CCOC4)ncc3C(F)(F)F)c[nH]c12 (single isomer, unassigned) [Compound 122] , what pIC50 is on record?
5.30 to 6.70

====

- Target or test system: CDK2/cyclinE1 complex (Homo sapiens, UniProt P24941)
- Test summary: In-vitro enzymatic inhibitory activity testing, CDK2 inhibition assay (Caliper EZ Reader II)
- Applied conditions: CDK2/cyclinE1 0.5 nM, 180 min at 27° C.
pIC50: −log10 of the molar value.
Quantity name: pIC50

In the examples that follow, each entry is paired with its recorded pIC50.
> print(dat)
                                   molecule  quantity.name  value.observed
1  CP(C)(=O)c1cccc2c(-c3nc(N[C@H]4COC[C@@H]4O)ncc3C(F)(F)F)c[nH]c12          pIC50    5.30 to 6.70
2  CP(C)(=O)c1cccc2c(-c3nc(N[C@@H]4CCC[C@H]4O)ncc3C(F)(F)F)c[nH]c12          pIC50    4.30 to 5.30
3  CP(C)(=O)c1cccc2c(-c3nc(NCC(O)C(F)(F)F)ncc3C(F)(F)F)c[nH]c12 (single isomer, unassigned) [Compound 146]          pIC50    4.30 to 5.30
4  CP(C)(=O)c1cccc2c(-c3nc(N[C@@H]4COCC[C@H]4O)ncc3C(F)(F)F)c[nH]c12          pIC50          < 4.30
5  CP(C)(=O)c1cccc2c(-c3nc(NC4(CO)CCOC4)ncc3C(F)(F)F)c[nH]c12 (stereo not shown) [Compound 117]          pIC50    4.30 to 5.30

For the molecule "Cc1cnc(N[C@@H](C)CO)nc1-c1c[nH]c2c(P(C)(C)=O)cccc12" , what pIC50 is on record?
4.30 to 5.30

For the molecule "CP(C)(=O)c1cccc2c(-c3nc(NCCCO)ncc3C(F)(F)F)c[nH]c12" , what pIC50 is on record?
5.30 to 6.70

====

Below, each entry is listed with its recorded pIC50.
- Target or test system: CDK7/cyclinH/MAT1 complex (Homo sapiens, UniProt P50613)
- Sequence (P50613 whole entry, species assumed): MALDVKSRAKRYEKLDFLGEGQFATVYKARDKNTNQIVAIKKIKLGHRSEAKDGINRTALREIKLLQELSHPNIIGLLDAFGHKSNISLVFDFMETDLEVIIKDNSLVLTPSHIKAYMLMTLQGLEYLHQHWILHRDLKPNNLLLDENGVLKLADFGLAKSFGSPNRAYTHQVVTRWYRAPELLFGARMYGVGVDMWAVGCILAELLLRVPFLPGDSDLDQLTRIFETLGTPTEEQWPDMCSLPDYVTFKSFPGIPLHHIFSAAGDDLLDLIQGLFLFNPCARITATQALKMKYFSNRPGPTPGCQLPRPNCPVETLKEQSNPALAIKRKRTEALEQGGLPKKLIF
- Sequence (P51946 whole entry partner, species assumed): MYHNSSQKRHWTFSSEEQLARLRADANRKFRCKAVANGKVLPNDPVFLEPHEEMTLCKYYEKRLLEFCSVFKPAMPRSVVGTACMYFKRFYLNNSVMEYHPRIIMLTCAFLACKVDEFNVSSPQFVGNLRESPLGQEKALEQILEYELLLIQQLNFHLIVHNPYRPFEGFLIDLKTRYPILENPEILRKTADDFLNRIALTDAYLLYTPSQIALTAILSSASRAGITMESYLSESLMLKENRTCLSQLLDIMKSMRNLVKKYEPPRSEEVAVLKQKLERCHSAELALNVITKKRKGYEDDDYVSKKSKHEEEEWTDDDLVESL
- Sequence (P51948 whole entry partner, species assumed): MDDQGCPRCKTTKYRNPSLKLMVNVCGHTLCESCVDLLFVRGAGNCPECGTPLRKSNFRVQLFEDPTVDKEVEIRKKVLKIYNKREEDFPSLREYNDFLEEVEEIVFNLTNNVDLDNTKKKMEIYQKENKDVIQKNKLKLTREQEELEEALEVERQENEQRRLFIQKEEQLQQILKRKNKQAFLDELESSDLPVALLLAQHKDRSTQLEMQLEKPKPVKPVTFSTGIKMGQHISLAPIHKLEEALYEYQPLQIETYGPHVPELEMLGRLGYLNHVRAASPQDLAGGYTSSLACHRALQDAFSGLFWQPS
- Test summary: In-vitro enzymatic inhibitory activity testing, CDK7 inhibition assay (Caliper EZ Reader II)
- Applied conditions: CDK7/cyclinH/MAT1 6 nM, 180 min at 27° C.
pIC50: −log10 of the molar value.

In the examples that follow, each entry is paired with its recorded pIC50.
> print(dat)
                                   compound  quantity.name  value.observed
1  CP(C)(=O)c1cccc2c(-c3nc(N[C@H]4COC[C@@H]4O)ncc3C(F)(F)F)c[nH]c12          pIC50          > 7.70
2  CP(C)(=O)c1cccc2c(-c3nc(NCC4(CO)CC4)ncc3C(F)(F)F)c[nH]c12          pIC50    6.70 to 7.70

For the compound CN(C)C[C@@H]1CCCC1Nc1ncc(C(F)(F)F)c(-c2c[nH]c3c(P(C)(C)=O)cccc23)n1 (stereo in doubt) , what pIC50 is on record?
> 7.70

For the compound "Cc1noc(C)c1-c1ccc2c(-c3nc(N[C@@H]4CCC45CNC5)ncc3C(F)(F)F)c[nH]c2n1" , what pIC50 is on record?
> 7.70

====

Below, each entry is listed with its recorded IC50.
- Tested on: ovarian cancer A2780
- Test summary: Cell biological activity detection (CyQuant, 72 hours), A2780
- Type: cell-based, human
- Applied conditions: A2780 cells, incubation for 72 hours

In the examples that follow, each entry is paired with its recorded IC50.
> print(dat)
                                   molecule  quantity.name  value.observed
1  CP(C)(=O)c1cccc2c(-c3nc(NC4CCC5(CCNC5)C4)ncc3C(F)(F)F)c[nH]c12 (single isomer, unassigned)           IC50         < 20 nM
2  CP(C)(=O)c1cccc2c(-c3nc(NCC(O)C(F)(F)F)ncc3C(F)(F)F)c[nH]c12 (single isomer, unassigned)           IC50    20 to 200 nM
3  CP(C)(=O)c1cccc2c(-c3nc(NCC(O)C(F)F)ncc3C(F)(F)F)c[nH]c12 (single isomer, unassigned) [Compound 125]           IC50  200 to 5000 nM

For the molecule CP(C)(=O)c1cccc2c(-c3nc(NC4(CO)CCOC4)ncc3C(F)(F)F)c[nH]c12 (single isomer, unassigned) , what IC50 is on record?
20 to 200 nM

====

Below, each entry is listed with its recorded IC50.
- Target or test system: CDK7/cyclinH/MAT1 complex (Homo sapiens, UniProt P50613)
- Test summary: In-vitro enzymatic inhibitory activity testing, CDK7 inhibition assay (Caliper EZ Reader II)
- Applied conditions: CDK7/cyclinH/MAT1 6 nM, 180 min at 27° C.

In the examples that follow, each entry is paired with its recorded IC50.
> print(dat)
                                   compound  value.observed
1  FC(F)(F)c1cnc(NC2CCC23CNC3)nc1-c1c[nH]c2nc(N3CCOCC3)ccc12 (centres unmarked)         < 20 nM
2  CC1(C)COCC(Nc2ncc(C(F)(F)F)c(-c3c[nH]c4c(P(C)(C)=O)cccc34)n2)CN1 (single isomer, unassigned) [Compound 92]         < 20 nM
3  FC(F)(F)c1cnc(NC2COC3(CCCNC3)C2)nc1-c1c[nH]c2nc(N3CCOCC3)ccc12 (centres unmarked)  200 to 5000 nM
4  C[C@H](Nc1ncc(C(F)(F)F)c(-c2c[nH]c3c(P(C)(C)=O)cccc23)n1)C(C)(C)O    20 to 200 nM
5  C[C@@H](CO)Nc1ncc(C(F)(F)F)c(-c2c[nH]c3c(P(C)(C)=O)c(C#N)ccc23)n1         < 20 nM

Query for CDK7/cyclinH/MAT1 complex (Homo sapiens, UniProt P50613): what IC50 does the record show for CP(C)(=O)c1cccc2c(-c3nc(NCC(O)C(F)(F)F)ncc3C(F)(F)F)c[nH]c12 (centres unmarked) [Compound 145] ?
20 to 200 nM

====

Below, each entry is listed with its recorded IC50.
- Target or test system: CDK12 (aa686-1082)/cyclinK complex (Homo sapiens, UniProt Q9NYV4)
- Construct: A CDK12 (aa686-1082)/cyclinK complex (50 nM)
- Sequence (Q9NYV4 686-1082, species assumed): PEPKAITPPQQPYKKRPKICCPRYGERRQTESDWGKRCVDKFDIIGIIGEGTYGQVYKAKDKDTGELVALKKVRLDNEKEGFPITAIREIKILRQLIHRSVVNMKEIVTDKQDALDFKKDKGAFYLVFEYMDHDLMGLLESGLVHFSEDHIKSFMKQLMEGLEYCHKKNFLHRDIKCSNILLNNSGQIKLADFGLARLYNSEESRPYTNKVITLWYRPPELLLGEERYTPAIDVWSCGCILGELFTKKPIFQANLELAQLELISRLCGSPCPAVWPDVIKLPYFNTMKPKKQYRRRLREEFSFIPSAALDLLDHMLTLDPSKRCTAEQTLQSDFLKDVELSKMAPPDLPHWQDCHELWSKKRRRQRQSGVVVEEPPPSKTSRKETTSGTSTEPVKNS
- Sequence (O75909 whole entry partner, species assumed, the tested form may be a part): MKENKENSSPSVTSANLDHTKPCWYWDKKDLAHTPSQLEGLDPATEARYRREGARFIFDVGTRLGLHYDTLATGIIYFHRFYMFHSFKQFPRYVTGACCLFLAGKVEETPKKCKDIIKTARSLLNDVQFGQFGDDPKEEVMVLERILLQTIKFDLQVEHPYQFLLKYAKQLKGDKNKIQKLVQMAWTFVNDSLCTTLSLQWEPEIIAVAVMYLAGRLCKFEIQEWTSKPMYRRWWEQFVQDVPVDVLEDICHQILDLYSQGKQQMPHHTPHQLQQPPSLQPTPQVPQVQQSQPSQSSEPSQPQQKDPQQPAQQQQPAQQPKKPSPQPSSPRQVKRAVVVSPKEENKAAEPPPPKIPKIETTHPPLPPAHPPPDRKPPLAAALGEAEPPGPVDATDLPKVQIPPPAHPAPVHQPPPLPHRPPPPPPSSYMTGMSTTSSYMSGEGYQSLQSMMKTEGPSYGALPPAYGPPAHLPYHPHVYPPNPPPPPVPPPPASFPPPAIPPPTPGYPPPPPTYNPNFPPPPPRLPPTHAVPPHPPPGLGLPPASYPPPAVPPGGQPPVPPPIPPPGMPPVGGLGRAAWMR
- Test summary: In-vitro enzymatic inhibitory activity testing, CDK12 inhibition assay (Caliper EZ Reader II)
- Assay type: biochemical
- Applied conditions: CDK12/cyclinK 50 nM, 180 min at 27° C.; read-out: CDK12 IC50

In the examples that follow, each entry is paired with its recorded IC50.
> print(dat)
                                   compound  value.observed
1  CN(C)[C@H]1CC[C@H](Nc2ncc(C(F)(F)F)c(-c3c[nH]c4nc(C#N)ccc34)n2)C1 [Compound 66]     0.2 to 5 µM
2  C[C@H]1COCCN1c1ccc2c(-c3nc(N[C@H]4CC[C@@H](N)C4)ncc3C(F)(F)F)c[nH]c2n1 [Compound 68]      5 to 50 µM
3  FC(F)(F)c1cnc(NC2CCC23CNC3)nc1-c1c[nH]c2nc(N3CCOCC3)ccc12 (centres unmarked) [Compound 39]      5 to 50 µM
4  CP(C)(=O)c1cccc2c(-c3nc(NCC(F)(F)CO)ncc3C(F)(F)F)c[nH]c12 [Compound 102]         > 50 µM

For the compound C[C@@H](CO)Nc1ncc(C#N)c(-c2c[nH]c3c(P(C)(C)=O)cccc23)n1 [Compound 179] , what IC50 is on record?
5 to 50 µM

For the compound CP(C)(=O)c1cccc2c(-c3nc(NC4CC45CCNC5)ncc3C(F)(F)F)c[nH]c12 (single isomer, unassigned) [Compound 108] , what IC50 is on record?
0.2 to 5 µM

For the compound CC(O)[C@H](C)Nc1ncc(C(F)(F)F)c(-c2c[nH]c3c(P(C)(C)=O)cccc23)n1 (single isomer, unassigned) [Compound 130] , what IC50 is on record?
> 50 µM

For the compound FC(F)(F)c1cnc(NC2CCCNCC2)nc1-c1c[nH]c2nc(N3CCOCC3)ccc12 (single isomer, unassigned) [Compound 48] , what IC50 is on record?
0.2 to 5 µM

For the compound C[C@@H](CO)Nc1ncc(Cl)c(-c2c[nH]c3c(P(C)(C)=O)cccc23)n1 [Compound 103] , what IC50 is on record?
> 50 µM

Reference source for all entries: patent US20240124504A1
